Assay: Pharmacokinetic properties of the components of the Combination (Table 6)
Parameters: species or system human
Details: human, in vivo, im; intramuscular injection; read-out: t1/2 (absorption rate limited), mean
recorded_metric: half-life

Request: // query half-life value for entry Cc1cc(/C=C/C#N)cc(C)c1Nc1ccnc(Nc2ccc(C#N)cc2)n1
Result: 91 to 196 days

Request: What do we get for C[C@H]1CO[C@@H]2Cn3cc(C(=O)NCc4ccc(F)cc4F)c(=O)c(O)c3C(=O)N12 ?
Result: 39.2 to 80.5 days

* * *

Test system: laboratory strains of HIV-1 (subtype B)
Test: Antiviral activity in PBMCs and 293 cells
Assay type: cell-based
Conditions: Human immunodeficiency virus 1, HEK293, n=4 strains
pEC50: −log10 of the molar value.
recorded_metric: pEC50

Request: // map C[C@H]1CO[C@@H]2Cn3cc(C(=O)NCc4ccc(F)cc4F)c(=O)c(O)c3C(=O)N12 to recorded pEC50 (system: laboratory strains of HIV-1 (subtype B))
Result: 8.77 to 9.66

* * *

Protein target, amino acids: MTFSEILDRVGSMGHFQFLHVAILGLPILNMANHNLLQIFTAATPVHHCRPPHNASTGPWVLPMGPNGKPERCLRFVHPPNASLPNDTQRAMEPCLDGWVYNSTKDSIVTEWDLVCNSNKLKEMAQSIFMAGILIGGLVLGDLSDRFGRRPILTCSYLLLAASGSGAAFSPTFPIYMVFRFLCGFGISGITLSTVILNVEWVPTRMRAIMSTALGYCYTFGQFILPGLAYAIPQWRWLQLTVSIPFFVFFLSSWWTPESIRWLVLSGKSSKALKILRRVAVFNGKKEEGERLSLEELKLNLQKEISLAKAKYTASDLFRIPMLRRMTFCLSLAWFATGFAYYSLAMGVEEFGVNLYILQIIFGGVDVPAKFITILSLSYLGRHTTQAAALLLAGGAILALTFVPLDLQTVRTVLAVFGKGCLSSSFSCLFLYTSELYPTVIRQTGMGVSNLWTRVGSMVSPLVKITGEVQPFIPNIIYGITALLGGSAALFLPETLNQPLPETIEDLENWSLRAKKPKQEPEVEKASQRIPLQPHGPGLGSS
recorded_metric: IC50 (µM)
Response body: numeric value in µM, unit text excluded.

Request: I would be grateful if you could share the reported IC50 for C[C@H]1CO[C@@H]2Cn3cc(C(=O)NCc4ccc(F)cc4F)c(=O)c(O)c3C(=O)N12 [Cabotegravir] .
Result: 0.41

* * *

Assay: Multiple-dose pharmacokinetics after monthly IM injections, population PK post-hoc estimates FLAIR and ATLAS
Type: in vivo, human
Conditions: human, in vivo; 600-mg monthly IM injection; read-out: Cmax, geometric mean
recorded_metric: Cmax (ng/mL)
Reply with just the number (in ng/mL).

Request: Recorded Cmax of Cc1cc(/C=C/C#N)cc(C)c1Nc1ccnc(Nc2ccc(C#N)cc2)n1 [Rilpivirine] , please.
Result: 116

* * *

Target protein (sequence): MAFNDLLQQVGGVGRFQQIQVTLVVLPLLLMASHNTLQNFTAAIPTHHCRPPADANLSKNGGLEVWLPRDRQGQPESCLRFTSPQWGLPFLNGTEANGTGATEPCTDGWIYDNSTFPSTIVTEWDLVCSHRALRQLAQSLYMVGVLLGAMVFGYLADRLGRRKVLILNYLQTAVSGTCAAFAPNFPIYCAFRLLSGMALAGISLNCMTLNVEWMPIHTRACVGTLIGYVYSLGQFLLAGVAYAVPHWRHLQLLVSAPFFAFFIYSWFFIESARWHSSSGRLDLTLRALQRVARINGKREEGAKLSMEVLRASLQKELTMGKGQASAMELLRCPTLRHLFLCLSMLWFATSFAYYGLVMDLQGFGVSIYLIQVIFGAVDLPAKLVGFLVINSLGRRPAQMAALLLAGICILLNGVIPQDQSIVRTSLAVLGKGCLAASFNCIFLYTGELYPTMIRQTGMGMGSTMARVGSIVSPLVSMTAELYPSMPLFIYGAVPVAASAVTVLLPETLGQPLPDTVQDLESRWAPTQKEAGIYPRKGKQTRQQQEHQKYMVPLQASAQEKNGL
recorded_metric: pIC50
Scale explanation: pIC50 corresponds to minus log10 of a concentration expressed in moles per litre.

Request: Field request: pIC50 | item: C[C@H]1CO[C@@H]2Cn3cc(C(=O)NCc4ccc(F)cc4F)c(=O)c(O)c3C(=O)N12
Result: 6.09

* * *

Experiment: Pharmacokinetic properties of the components of the Combination (Table 6)
Set-up: species or system human
Details: human, in vivo, im; intramuscular injection; read-out: Tmax, median (converted)
recorded_metric: Tmax (h)
Provide only the numeric value, understood in h.

Request: Consider the compound C[C@H]1CO[C@@H]2Cn3cc(C(=O)NCc4ccc(F)cc4F)c(=O)c(O)c3C(=O)N12 [Cabotegravir] and give its measured Tmax.
Result: 168

* * *

Tested on: HIV-1 clinical isolates
Test: Antiviral activity in PBMCs against clinical isolates
Format: cell-based
Conditions: Human immunodeficiency virus 1, PBMC, read-out: median EC50, subtype B clinical isolates, n=3
recorded_metric: EC50 (nM)
Write the value in nM as a bare number.

Request: What value of EC50 has been reported for the following molecule? C[C@H]1CO[C@@H]2Cn3cc(C(=O)NCc4ccc(F)cc4F)c(=O)c(O)c3C(=O)N12 [Cabotegravir]
Result: 0.05

* * *

Items are presented alongside their recorded Geometric Mean Ratio of coadministered drug AUC with/without EDURANT.
Test: Drug interaction studies with oral rilpivirine
Conditions: rilpivirine 150 mg once daily; No Effect = 1.00
Where a name gives a salt, the structure may show the parent alone.
No unit in the answer, only the number.

Example entries begin here.
- molecule: "CO[C@H]1/C=C/O[C@@]2(C)Oc3c(C)c(O)c4c(O)c(c(/C=N/N5CCN(C)CC5)c(O)c4c3C2=O)NC(=O)/C(C)=C\\C=C\\[C@H](C)[C@H](O)[C@@H](C)[C@@H](O)[C@@H](C)[C@H](O)[C@@H]1C"
  result: 0.91
- molecule: "CC(C)OC(=O)OCOP(=O)(CO[C@H](C)Cn1cnc2c(N)ncnc21)OCOC(=O)OC(C)C [Tenofovir disoproxil fumarate]"
  result: 1.23
- molecule: "O=c1[nH]cnc2c1ncn2[C@H]1CC[C@@H](CO)O1"
  result: 1.12
- molecule: "CC(=O)N1CCN(c2ccc(OCC3COC(Cn4ccnc4)(c4ccc(Cl)cc4Cl)O3)cc2)CC1 (stereo not shown)"
  result: 0.76
- molecule: "CO[C@H]1/C=C/O[C@@]2(C)Oc3c(C)c(O)c4c(O)c(c(/C=N/N5CCN(C)CC5)c(O)c4c3C2=O)NC(=O)/C(C)=C\\C=C\\[C@H](C)[C@H](O)[C@@H](C)[C@@H](O)[C@@H](C)[C@H](OC(C)=O)[C@@H]1C"
  result: 0.99
- molecule: "CC(C)c1c(C(=O)Nc2ccc(O)cc2)c(-c2ccccc2)c(-c2ccc(F)cc2)n1CC[C@@H](O)C[C@@H](O)CC(=O)O [4-hydroxy-atorvastatin]"
  result: 1.23

// next entry
Request: Which Geometric Mean Ratio of coadministered drug AUC with/without EDURANT is listed for CC(=O)Nc1ccc(O)cc1 ?
Result: 0.91

* * *

Assay: Drug interaction studies with oral rilpivirine
Conditions: rilpivirine 25 mg once daily; No Effect = 1.00
recorded_metric: Geometric Mean Ratio of coadministered drug AUC with/without EDURANT
The answer should be written as a number, with no unit following it.

- molecule: "Cc1nnc(C(=O)NC(C)(C)c2nc(C(=O)NCc3ccc(F)cc3)c(O)c(=O)n2C)o1 [Raltegravir]"
  result: 1.09
- molecule: "C#C[C@]1(O)CC[C@H]2[C@@H]3CCc4cc(O)ccc4[C@H]3CC[C@@]21C [Ethinyl estradiol]"
  result: 1.14
- molecule: "C[C@H]1O[C@@H](O[C@H]2[C@@H](O)C[C@H](O[C@H]3[C@@H](O)C[C@H](O[C@H]4CC[C@@]5(C)[C@H](CC[C@@H]6[C@@H]5C[C@@H](O)[C@]5(C)[C@@H](C7=CC(=O)OC7)CC[C@]65O)C4)O[C@@H]3C)O[C@@H]2C)C[C@H](O)[C@@H]1O [Digoxin]"
  result: 0.98
- molecule: "CN(C)C(=N)N=C(N)N [Metformin]"
  result: 0.97

Shifting focus to the molecule that follows.
Request: Given the molecule C#C[C@]1(O)CC[C@H]2[C@@H]3CCC4=CC(=O)CC[C@@H]4[C@H]3CC[C@@]21C [Norethindrone] , what is its reported Geometric Mean Ratio of coadministered drug AUC with/without EDURANT?
Result: 0.89
